- method summary: Absorption and emission spectra of dyes in different solvents
- Format: physicochemical
- Parameters: key: Stokes shift in nm
- measurement setup: Stokes shift to absorption peak 2; solvent THF
- Description: In the present invention, compounds IIa to IIg were synthesized based on compound II, and their spectral properties were investigated. […]
measured endpoint: Δλ2
Write no unit; give the number alone.

CCN1/C(=C/C=C/C(=C/C2=[N+](CC)c3ccccc3C2(C)C)NCCO)C(C)(C)c2ccccc21 :: 158
CCN1/C(=C/C=C/C(=C/C2=[N+](CC)c3ccccc3C2(C)C)NCc2ccccc2)C(C)(C)c2ccccc21 :: 170
CCN1/C(=C/C=C/C(N)=C/C2=[N+](CC)c3ccccc3C2(C)C)C(C)(C)c2ccccc21 :: 182
CCN1/C(=C/C=C/C(=C/C2=[N+](CC)c3ccccc3C2(C)C)N(Cc2ccccc2)Cc2ccccc2)C(C)(C)c2ccccc21 :: 156
CCN1/C(=C/C=C/C(=C/C2=[N+](CC)c3ccccc3C2(C)C)N(CCO)CCO)C(C)(C)c2ccccc21 :: 155

Field Δλ2 (entry `CCN1/C(=C/C=C/C(=C/C2=[N+](CC)c3ccccc3C2(C)C)Nc2ccccc2)C(C)(C)c2ccccc21` ) reads 236

Δλ2 reading for `CCN(CC)C(=C\C1=[N+](CC)c2ccccc2C1(C)C)/C=C/C=C1/N(CC)c2ccccc2C1(C)C` : 154

====

- method summary: Absorption and emission spectra of dyes in different solvents
- Format: physicochemical
- Set-up: key: Stokes shift in nm
- measurement setup: Stokes shift to absorption peak 2; solvent DMSO
measured endpoint: Δλ2
Answer field: number only, no words.

So for `CCN1/C(=C/C=C/C(=C/C2=[N+](CC)c3ccccc3C2(C)C)NCCO)C(C)(C)c2ccccc21` , the logged Δλ2 turned out to be 170

Quick note, Δλ2 for `CCN(CC)C(=C\C1=[N+](CC)c2ccccc2C1(C)C)/C=C/C=C1/N(CC)c2ccccc2C1(C)C` landed at 140

Short answer for `CCN1/C(=C/C=C/C(N)=C/C2=[N+](CC)c3ccccc3C2(C)C)C(C)(C)c2ccccc21` : Δλ2 was 189

====

- method summary: Absorption and emission spectra of dyes in different solvents
- Format: physicochemical
- measurement setup: solvent Ethanol
measured endpoint: λem (nm)
Quick reminder: number only, in nm, skip the unit.

As a guide, the following entries are already answered.
CCN1/C(=C/C=C/C(=C/C2=[N+](CC)c3ccccc3C2(C)C)Nc2ccccc2)C(C)(C)c2ccccc21 :: 640
CCN1/C(=C/C=C/C(=C/C2=[N+](CC)c3ccccc3C2(C)C)N(CCO)CCO)C(C)(C)c2ccccc21 :: 618

The recorded λem for `CCN1/C(=C/C=C/C(=C/C2=[N+](CC)c3ccccc3C2(C)C)NCCO)C(C)(C)c2ccccc21` is 612

The recorded λem for `CCN(CC)C(=C\C1=[N+](CC)c2ccccc2C1(C)C)/C=C/C=C1/N(CC)c2ccccc2C1(C)C` is 610

Entry `CCN1/C(=C/C=C/C(N)=C/C2=[N+](CC)c3ccccc3C2(C)C)C(C)(C)c2ccccc21` , λem reported as 602

Lab note: `CCN1/C(=C/C=C/C(=C/C2=[N+](CC)c3ccccc3C2(C)C)NCc2ccccc2)C(C)(C)c2ccccc21` gave λem of 608

// field: λem; key: `CCN1/C(=C/C=C/C(=C/C2=[N+](CC)c3ccccc3C2(C)C)N(Cc2ccccc2)Cc2ccccc2)C(C)(C)c2ccccc21` ; value = 615

====

- method summary: Absorption and emission spectra of dyes in different solvents
- Type: physicochemical
- Parameters: key: Stokes shift in nm
- measurement setup: Stokes shift to absorption peak 1; solvent Ethanol
hey, just use Criterion met if measured Δλ1 is less than 90, otherwise Criterion not met

Please review the following examples before continuing.
CCN1/C(=C/C=C/C(N)=C/C2=[N+](CC)c3ccccc3C2(C)C)C(C)(C)c2ccccc21 :: Criterion met
CCN1/C(=C/C=C/C(=C/C2=[N+](CC)c3ccccc3C2(C)C)Nc2ccccc2)C(C)(C)c2ccccc21 :: Criterion met
CCN1/C(=C/C=C/C(=C/C2=[N+](CC)c3ccccc3C2(C)C)N(CCO)CCO)C(C)(C)c2ccccc21 :: Criterion not met
CCN(CC)C(=C\C1=[N+](CC)c2ccccc2C1(C)C)/C=C/C=C1/N(CC)c2ccccc2C1(C)C :: Criterion not met

I wonder whether `CCN1/C(=C/C=C/C(=C/C2=[N+](CC)c3ccccc3C2(C)C)N(Cc2ccccc2)Cc2ccccc2)C(C)(C)c2ccccc21` has Δλ1 below 90. Can you tell?
Criterion met

====

- method summary: Absorption and emission spectra of dyes in different solvents
- Type: physicochemical
- Set-up: key: Stokes shift in nm
- measurement setup: Stokes shift to absorption peak 1; solvent Water
# Lookup of reported Δλ1 keyed by entry
Write the number on its own, no unit after it.

CCN1/C(=C/C=C/C(=C/C2=[N+](CC)c3ccccc3C2(C)C)NCc2ccccc2)C(C)(C)c2ccccc21 [Dye IIe] :: 101

Record CCN(CC)C(=C\C1=[N+](CC)c2ccccc2C1(C)C)/C=C/C=C1/N(CC)c2ccccc2C1(C)C [Dye IId] , field Δλ1: 99

Sure, the documented Δλ1 for CCN1/C(=C/C=C/C(=C/C2=[N+](CC)c3ccccc3C2(C)C)N(CCO)CCO)C(C)(C)c2ccccc21 [Dye IIc] is 98

Please fill in: Δλ1 reported for CCN1/C(=C/C=C/C(N)=C/C2=[N+](CC)c3ccccc3C2(C)C)C(C)(C)c2ccccc21 [Dye IIa] = 92

====

- method summary: Absorption and emission spectra of dyes in different solvents
- Assay type: physicochemical
- measurement setup: solvent Methanol
- From the text: In the present invention, compounds IIa to IIg were synthesized based on compound II, and their spectral properties were investigated. […]
λem: recorded values
Please reply with the bare figure in nm and do not write the unit itself.

These solved cases illustrate the format of a correct answer.
CCN1/C(=C/C=C/C(=C/C2=[N+](CC)c3ccccc3C2(C)C)NCCO)C(C)(C)c2ccccc21 [Dye IIb] :: 608
CCN1/C(=C/C=C/C(=C/C2=[N+](CC)c3ccccc3C2(C)C)N(CCO)CCO)C(C)(C)c2ccccc21 [Dye IIc] :: 619
CCN1/C(=C/C=C/C(=C/C2=[N+](CC)c3ccccc3C2(C)C)Nc2ccccc2)C(C)(C)c2ccccc21 [Dye IIg] :: 638
CCN1/C(=C/C=C/C(N)=C/C2=[N+](CC)c3ccccc3C2(C)C)C(C)(C)c2ccccc21 [Dye IIa] :: 606
CCN1/C(=C/C=C/C(=C/C2=[N+](CC)c3ccccc3C2(C)C)NCc2ccccc2)C(C)(C)c2ccccc21 [Dye IIe] :: 605

Measured λem of CCN(CC)C(=C\C1=[N+](CC)c2ccccc2C1(C)C)/C=C/C=C1/N(CC)c2ccccc2C1(C)C [Dye IId] : 609

Input CCN1/C(=C/C=C/C(=C/C2=[N+](CC)c3ccccc3C2(C)C)N(Cc2ccccc2)Cc2ccccc2)C(C)(C)c2ccccc21 [Dye IIf] . Output λem: 617

====

- method summary: Absorption and emission spectra of dyes in different solvents
- Format: physicochemical
- Design: key: Stokes shift in nm
- measurement setup: Stokes shift to absorption peak 1; solvent Water
measured endpoint: Δλ1

Lab note: measured Δλ1 of CCN1/C(=C/C=C/C(=C/C2=[N+](CC)c3ccccc3C2(C)C)Nc2ccccc2)C(C)(C)c2ccccc21 [Dye IIg] was 81

// Δλ1 value for CCN1/C(=C/C=C/C(=C/C2=[N+](CC)c3ccccc3C2(C)C)NCCO)C(C)(C)c2ccccc21 [Dye IIb] : 103

The molecule identified as CCN1/C(=C/C=C/C(=C/C2=[N+](CC)c3ccccc3C2(C)C)N(Cc2ccccc2)Cc2ccccc2)C(C)(C)c2ccccc21 [Dye IIf] registered its Δλ1 at 93

====

- method summary: Absorption and emission spectra of dyes in different solvents
- Format: physicochemical
- Set-up: key: Stokes shift in nm
- measurement setup: Stokes shift to absorption peak 1; solvent DCM
Listed here are compounds together with their documented Δλ1.
Keep it simple and answer with nothing but the number.

Worked cases, Δλ1 given:
CCN1/C(=C/C=C/C(=C/C2=[N+](CC)c3ccccc3C2(C)C)N(Cc2ccccc2)Cc2ccccc2)C(C)(C)c2ccccc21 :: 87
CCN1/C(=C/C=C/C(=C/C2=[N+](CC)c3ccccc3C2(C)C)N(CCO)CCO)C(C)(C)c2ccccc21 :: 96

Lab note: measured Δλ1 of `CCN1/C(=C/C=C/C(=C/C2=[N+](CC)c3ccccc3C2(C)C)Nc2ccccc2)C(C)(C)c2ccccc21` was 75

====

- method summary: Absorption and emission spectra of dyes in different solvents
- Assay type: physicochemical
- Design: scale not given here
- measurement setup: solvent DCM
ε1 (molar extinction coefficient) below 3 cm^−1M gives Condition not met; ε1 (molar extinction coefficient) at or above it gives Condition met.

Previously resolved entries follow.
CCN1/C(=C/C=C/C(=C/C2=[N+](CC)c3ccccc3C2(C)C)N(Cc2ccccc2)Cc2ccccc2)C(C)(C)c2ccccc21 :: Condition met
CCN1/C(=C/C=C/C(=C/C2=[N+](CC)c3ccccc3C2(C)C)Nc2ccccc2)C(C)(C)c2ccccc21 :: Condition met
CCN1/C(=C/C=C/C(=C/C2=[N+](CC)c3ccccc3C2(C)C)NCCO)C(C)(C)c2ccccc21 :: Condition met
CCN(CC)C(=C\C1=[N+](CC)c2ccccc2C1(C)C)/C=C/C=C1/N(CC)c2ccccc2C1(C)C :: Condition met
CCN1/C(=C/C=C/C(=C/C2=[N+](CC)c3ccccc3C2(C)C)N(CCO)CCO)C(C)(C)c2ccccc21 :: Condition not met

State whether the measured ε1 (molar extinction coefficient) reaches 3 cm^−1M, counting equality as reaching it, for `CCN1/C(=C/C=C/C(N)=C/C2=[N+](CC)c3ccccc3C2(C)C)C(C)(C)c2ccccc21`
Condition met

Would you say `CCN1/C(=C/C=C/C(=C/C2=[N+](CC)c3ccccc3C2(C)C)NCc2ccccc2)C(C)(C)c2ccccc21` shows ε1 (molar extinction coefficient) at minimum 3 cm^−1M?
Condition not met

These entries and their values trace back to patent US8735601B2.
